ASSAYED SYSTEM: EPHB1 (human)
RUN DESCRIPTION: radiometric filter-binding kinase assay
REPORTED CONDITIONS: compound 10.0 µM
Quick list: residual activity per entry.
RECORDED METRIC: residual activity (%)

INSERT INTO results (smiles, reading_unit, reported_result) VALUES
  ('CCCCCc1ccc(/C=C/[C@H](O)[C@@H](CO)NC)cc1', '%', 115),
  ('O=C(Nc1ccccc1-c1cn2c(CN3CCNCC3)csc2n1)c1cnc2ccccc2n1', '%', 88),
  ('NS(=O)(=O)OC[C@@H]1C[C@@H](n2ccc3c(N[C@H]4CCc5ccccc54)ncnc32)C[C@@H]1O', '%', 100),
  ('CCCC(CCC)C(=O)O', '%', 107),
  ('Cc1nc(-c2ccc(OCC(C)C)c(C#N)c2)sc1C(=O)O', '%', 103),
  ('COc1cc(C(=O)N2CCOCC2)c(F)cc1Nc1ncc(C(F)(F)F)c(NC2CC2)n1', '%', 91),
  ('N#Cc1c(O)c2c(-c3ccc(-c4ccccc4O)cc3)csc2[nH]c1=O', '%', 110),
  ('NC(=O)c1ccc(-c2ccc(Oc3cncc4sc(-c5nn[nH]n5)cc34)cc2)cc1', '%', 107),
  ('FC(F)(F)c1ccc(-c2ccc(Oc3cncc4sc(-c5nn[nH]n5)cc34)cc2)cc1', '%', 100),
  ('Cc1ccc(-c2ccc3c(ccc4sc5c(c43)NC[C@@H](C)NC5=O)n2)cn1', '%', 106);

====

Below, each entry is listed alongside its reported residual activity.
ASSAYED SYSTEM: EPHB2 (human)
RUN DESCRIPTION: radiometric filter-binding kinase assay
REPORTED CONDITIONS: compound 1.0 µM
RECORDED METRIC: residual activity (%)

INSERT INTO measurements (compound, assayed_system, recorded_metric, reading_unit, reported_result) VALUES
  ('O=C(NCCCNc1nc(Nc2cccc(CN3CCOCC3)c2)ncc1C1CC1)C1CCC1', 'EPHB2 (human)', 'residual activity', '%', 78),
  ('CNC(=O)C1[C@H]2O[C@@](C)([C@@H]1N)n1c3ccccc3c3c4c(c5c6ccccc6n2c5c31)C(=O)NC4 (some centres undefined)', 'EPHB2 (human)', 'residual activity', '%', 34),
  ('O=C(NOC[C@H](O)CO)c1ccc(F)c(F)c1Nc1ccc(I)cc1Cl', 'EPHB2 (human)', 'residual activity', '%', 64),
  ('O=C(Nc1nc2cc(C(F)(F)F)cc(NC3CC3)n2n1)c1cccnc1', 'EPHB2 (human)', 'residual activity', '%', 95),
  ('COc1ccc(N(C(=O)Nc2c(C)cccc2C)c2cc(Nc3ccc(N4CCN(C)CC4)cc3)ncn2)c(OC)c1', 'EPHB2 (human)', 'residual activity', '%', 1),
  ('NC1(c2ccc(-c3nc4ccn5c(=O)[nH]nc5c4cc3-c3ccccc3)cc2)CCC1', 'EPHB2 (human)', 'residual activity', '%', 93),
  ('Cc1nc(-c2ccc(OCC(C)C)c(C#N)c2)sc1C(=O)O', 'EPHB2 (human)', 'residual activity', '%', 122),
  ('Cc1ccc(Sc2cnc(Nc3cccc(Br)n3)s2)cc1C(=O)N1CCN(C(=O)CN)CC1', 'EPHB2 (human)', 'residual activity', '%', 4),
  ('NS(=O)(=O)OC[C@@H]1C[C@@H](n2ccc3c(N[C@H]4CCc5ccccc54)ncnc32)C[C@@H]1O', 'EPHB2 (human)', 'residual activity', '%', 107);

====

Tested on: PAK2 (human), Q13177 [T402E]
Sequence (Q13177 whole entry T402E, looked up): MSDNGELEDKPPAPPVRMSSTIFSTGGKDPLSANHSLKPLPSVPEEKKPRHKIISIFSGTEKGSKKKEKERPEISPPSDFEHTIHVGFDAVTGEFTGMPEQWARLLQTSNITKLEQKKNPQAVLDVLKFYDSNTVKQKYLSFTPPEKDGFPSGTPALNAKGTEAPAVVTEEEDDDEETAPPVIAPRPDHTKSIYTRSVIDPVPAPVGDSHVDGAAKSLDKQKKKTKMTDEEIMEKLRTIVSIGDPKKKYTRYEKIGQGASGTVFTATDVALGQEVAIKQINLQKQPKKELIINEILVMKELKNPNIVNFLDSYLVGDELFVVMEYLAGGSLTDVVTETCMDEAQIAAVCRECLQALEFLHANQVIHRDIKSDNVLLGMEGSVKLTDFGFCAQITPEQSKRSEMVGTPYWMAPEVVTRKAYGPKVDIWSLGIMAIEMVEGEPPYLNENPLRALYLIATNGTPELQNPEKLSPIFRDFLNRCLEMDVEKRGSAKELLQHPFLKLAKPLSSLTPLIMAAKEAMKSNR
RUN DESCRIPTION: radiometric filter-binding kinase assay
REPORTED CONDITIONS: compound 10.0 µM
Lab note - cut at 90% for residual activity: y if strictly below, n if not.

INSERT INTO measurements (compound, assayed_system, label_value) VALUES
  ('O=C(NOCC(O)CO)c1ccc(F)c(F)c1Nc1ccc(I)cc1Cl (stereo not given)', 'PAK2 (human), Q13177 [T402E]', 'y'),
  ('O=c1c(O)c(-c2ccc(O)c(O)c2)oc2cc(O)c(O)c(O)c12', 'PAK2 (human), Q13177 [T402E]', 'n');

====

Readings of residual activity for the listed compounds
ASSAYED SYSTEM: PRKCA (human) (UniProt P17252)
RUN DESCRIPTION: radiometric filter-binding kinase assay
REPORTED CONDITIONS: compound 10.0 µM
RECORDED METRIC: residual activity (%)

INSERT INTO assay_data (smiles, recorded_metric, reported_result) VALUES
  ('Cc1ccc(Sc2cnc(Nc3cccc(Br)n3)s2)cc1C(=O)N1CCN(C(=O)CN)CC1', 'residual activity', 11),
  ('C=CC(=O)N1CCC[C@@H](n2nc(-c3ccc(Oc4ccccc4)cc3)c3c(N)ncnc32)C1', 'residual activity', 100),
  ('NCC(=O)Nc1ccc(-n2nc(C(F)(F)F)cc2-c2ccc3c(ccc4ccccc43)c2)cc1', 'residual activity', 90),
  ('NC1(c2ccc(-c3nc4ccn5c(=O)[nH]nc5c4cc3-c3ccccc3)cc2)CCC1', 'residual activity', 98),
  ('NC(=O)c1c(NC(=O)C2CC2)sc2c1CCCC2', 'residual activity', 86),
  ('O=C1NC(=S)N[C@@H]1Cc1c[nH]c2ccccc12', 'residual activity', 104),
  ('O=C(N[C@@H](COc1ccc2[nH]c(=O)[nH]c2c1)c1ccccc1)c1cccn(Cc2ccc(F)c(F)c2)c1=O', 'residual activity', 96),
  ('COC(=O)/C=C/C(=O)OC', 'residual activity', 99);

====

residual activity values for the compounds below.
ASSAYED SYSTEM: MAPK14 (human)
RUN DESCRIPTION: radiometric filter-binding kinase assay
REPORTED CONDITIONS: compound 10.0 µM
RECORDED METRIC: residual activity (%)

INSERT INTO measurements (compound, reported_result) VALUES
  ('O=C(O)c1ccc(-c2c[nH]c3ncc(-c4ccccc4)cc23)cc1C1CCCC1', 106),
  ('CCn1c(-c2nonc2N)nc2cncc(CNC3CCNCC3)c21', 94),
  ('CCOC(=O)c1ccc(N2NC(=O)/C(=C/c3ccc([N+](=O)[O-])o3)C2=O)cc1', 105),
  ('NC(=O)Nc1ccc2c(c1)/C(=C/c1cc(-c3cccnc3)c[nH]1)C(=O)N2', 45),
  ('O=S(=O)(c1ccc(F)c2nonc12)N1CCN(c2ncc(C(F)(F)F)cc2Cl)CC1', 74),
  ('O=C1Nc2nc(-c3c(O)cccc3OCC3CC3)cc(C3CCCNC3)c2CO1 (stereo unspecified)', 78),
  ('O=C1NC(=S)N[C@@H]1Cc1c[nH]c2ccccc12', 82),
  ('CNc1nc(-c2ccc3c(N)n[nH]c3c2)cc(N2C[C@@H](C(=O)NC3CCCCC3)CC[C@H]2C)n1', 99),
  ('COC(=O)/C=C/C(=O)OC', 90),
  ('Nc1cccc2c1CN(C1CCC(=O)NC1=O)C2=O (stereo unspecified)', 103),
  ('FC(F)(F)c1ccc(-c2ccc(Oc3cncc4sc(-c5nn[nH]n5)cc34)cc2)cc1', 107),
  ('Cc1cc(SCc2sc(-c3ccc(C(F)(F)F)cc3)nc2C)ccc1OCC(=O)O', 98),
  ('CC(C)C[C@H](NC(=O)CNC(=O)c1cc(Cl)ccc1Cl)B1OC(=O)CC(CC(=O)O)(C(=O)O)O1 (stereo partly specified)', 88),
  ('NC(=O)c1cc2c(-c3cccc(-c4ccccc4)c3)cnc(N)c2s1', 59),
  ('CC(C)(C#N)c1ccc(N2C(=O)OCc3cnc4ccc(-c5cnc6ccccc6c5)cc4c32)cc1', 134),
  ('c1ccc2c(-c3cnn4cc(-c5ccc(N6CCNCC6)cc5)cnc34)ccnc2c1', 75),
  ('Cc1ccc(=O)n(-c2ccccc2)c1', 83),
  ('CCNc1nc(Nc2cc(F)c(C(=O)N3CCOCC3)cc2OC)ncc1C(F)(F)F', 101),
  ('Cc1ccc(-c2ccc3c(ccc4sc5c(c43)NC[C@@H](C)NC5=O)n2)cn1', 83),
  ('O=c1c(O)c(-c2ccc(O)c(O)c2)oc2cc(O)c(O)c(O)c12', 119),
  ('C=CC(=O)N1CCC[C@@H](n2nc(-c3ccc(Oc4ccccc4)cc3)c3c(N)ncnc32)C1', 101);

====

ASSAYED SYSTEM: CDK2 CCNA2 (human) (UniProt P20248+P24941)
RUN DESCRIPTION: radiometric filter-binding kinase assay
REPORTED CONDITIONS: compound 0.01 µM
Lab note: cut-off is 90%. Strictly less in residual activity is Yes. Exactly 90% or more is No.

INSERT INTO assay_data (compound, label_value) VALUES
  ('C/C(=C1/C(=O)Nc2ccc(NC(N)=O)cc21)c1ccc[nH]1', 'Yes'),
  ('CNC(=O)C1[C@H]2O[C@@](C)([C@@H]1N)n1c3ccccc3c3c4c(c5c6ccccc6n2c5c31)C(=O)NC4 (stereo partly specified)', 'Yes'),
  ('CNc1nc(-c2ccc3c(N)n[nH]c3c2)cc(N2C[C@@H](C(=O)NC3CCCCC3)CC[C@H]2C)n1', 'No'),
  ('COc1ccc(N(C(=O)Nc2c(C)cccc2C)c2cc(Nc3ccc(N4CCN(C)CC4)cc3)ncn2)c(OC)c1', 'No'),
  ('O=C(Nc1nc2cc(C(F)(F)F)cc(NC3CC3)n2n1)c1cccnc1', 'No');

Where do the numbers come from? From the kinase profiling compilation of Christmann-Franck et al. (2016).
